# key: entry, value: switch fluorescence ratio
# Test system: ATP;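 note: ATP exposure 15 min at 22 °C before imaging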
# Protocol Description: switch fluorescence ratio, 500 uM ATP over buffer (Cy3 cluster intensity, sum of 5 cycles each) (fold (ratio)); higher = stronger signal-on switching upon ATP binding; sequences stand for … in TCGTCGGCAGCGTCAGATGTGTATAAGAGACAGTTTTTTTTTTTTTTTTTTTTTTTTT…TC
# Run Conditions: aptamer strand: ATP DNA aptamer (quencher-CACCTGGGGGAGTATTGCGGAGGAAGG + anchor), 100 nM annealed; ATP concentration: 500 uM
Readout Label: switch fluorescence ratio

>>> df
    monomer_sequence              readout_label  number
 0         TCCATGTAA  switch fluorescence ratio    1.01
 1        CGGGGATTTC  switch fluorescence ratio       1
 2        ACAGGACGTT  switch fluorescence ratio    1.11
 3        AATGTTACGC  switch fluorescence ratio    1.02
 4        CACCGTGTCT  switch fluorescence ratio    1.02
 5        CGATGGGCTA  switch fluorescence ratio    1.02
 6        TGACTGAAAA  switch fluorescence ratio    1.01
 7        GGTTGGAGTT  switch fluorescence ratio   0.984
 8        TGAGGCCCAG  switch fluorescence ratio    1.01
 9        TTGGGAGTAC  switch fluorescence ratio   0.942
10        AGGGGCTTTT  switch fluorescence ratio   0.998
11        CAGGTTTGTT  switch fluorescence ratio    1.12
12        ATAAGGGTAA  switch fluorescence ratio       1
13        GGTGGGGTCC  switch fluorescence ratio   0.987
14        TTCGGGGGTG  switch fluorescence ratio    1.01
15        TATGTTTGGG  switch fluorescence ratio   0.986
16        AGGGGTTAAT  switch fluorescence ratio   0.985
17         TAAAGGATG  switch fluorescence ratio   0.968
18        CATTTATCCT  switch fluorescence ratio    1.07
19        GGGTCAACGC  switch fluorescence ratio   0.997
20        GCGGTGGGTT  switch fluorescence ratio   0.986
21        TTAGGGGGAT  switch fluorescence ratio   0.988
22        CCGGGATCTT  switch fluorescence ratio    1.05
23        GCCTGGTTTT  switch fluorescence ratio   0.979
24        AAGATATTCT  switch fluorescence ratio    1.03
25        TATATGGTGT  switch fluorescence ratio    1.02
26        TTAAGTGCTA  switch fluorescence ratio    0.99
27        TACCGGTGTC  switch fluorescence ratio    1.06
28        AGAGGATGTG  switch fluorescence ratio    1.01
29        TCGCTCATGG  switch fluorescence ratio    1.03
30        GGTTTGAAAT  switch fluorescence ratio    1.04
31        TAAAGGCGGG  switch fluorescence ratio   0.987
32        TATTGAGGGA  switch fluorescence ratio    1.02
33        TAATAAGGCT  switch fluorescence ratio   0.993
34        CGGAATTTCC  switch fluorescence ratio    1.09
35        TGGGCGGGGG  switch fluorescence ratio    1.03
36        CCTATGCAGT  switch fluorescence ratio    5.33
37        CCGAGCGCTT  switch fluorescence ratio    4.69
38        TTGTTAATCG  switch fluorescence ratio   0.984
39        AGAGCTAAGT  switch fluorescence ratio   0.982
40        GCTTTGGGGA  switch fluorescence ratio       1
41         TTGGGGGGA  switch fluorescence ratio   0.997
42        AGGGGAGGAG  switch fluorescence ratio   0.974
43        GAGGCTATGG  switch fluorescence ratio    1.01
44        GGGGGACCTT  switch fluorescence ratio    1.04
45        TATTGGGTTC  switch fluorescence ratio   0.965
46        TTTTCAAGTT  switch fluorescence ratio    1.21
47        AAAATCGCTT  switch fluorescence ratio    1.01
48        TATTGTTGGG  switch fluorescence ratio   0.976
49        GACGTAACGG  switch fluorescence ratio    1.08
50        GAATGTAGCA  switch fluorescence ratio    1.03
51        TCTTTATTAA  switch fluorescence ratio   0.989
52        AGACCTAAAG  switch fluorescence ratio    1.05
53        TTATGGTGCA  switch fluorescence ratio    0.99
54        CCGGGCTCTG  switch fluorescence ratio    1.06
55        GGGCCTTGGT  switch fluorescence ratio   0.987
56        GAGCGTAACG  switch fluorescence ratio       1
57        CGAGGGTAGT  switch fluorescence ratio    1.01
58        AGTTTTCTTC  switch fluorescence ratio   0.962
59        CCAGGTATAA  switch fluorescence ratio    1.06
60        CGTAAATTTA  switch fluorescence ratio   0.975
61        GGTATGGACA  switch fluorescence ratio   0.997
62        CGAGTGGGTG  switch fluorescence ratio   0.996
63        AACTTTATCC  switch fluorescence ratio    1.09
64        ACCGGTTACG  switch fluorescence ratio    1.03
65        TGGGAGGCCT  switch fluorescence ratio    1.02
66        AACTATTCGG  switch fluorescence ratio   0.979
67        CAATAGTCAG  switch fluorescence ratio    1.04
68        AGTCGGTTCG  switch fluorescence ratio   0.986
69        GTTGAACAGT  switch fluorescence ratio    1.01
70        AGGTATCAGA  switch fluorescence ratio   0.972
71        GGGCTTTGAG  switch fluorescence ratio   0.979
72        AGACTAGGCT  switch fluorescence ratio    1.02
73        AGTGGGAACC  switch fluorescence ratio   0.998
74        CATCCTTTTA  switch fluorescence ratio    1.05
75        TCTTGTGAGG  switch fluorescence ratio    1.04
76        GGGGGTGTCG  switch fluorescence ratio   0.994
77        ATGTAGGTGA  switch fluorescence ratio    1.03
78        TAAGGACGGG  switch fluorescence ratio    1.02
79        TACTTGTGTG  switch fluorescence ratio   0.988
80        AATCCCGCCA  switch fluorescence ratio    1.19
81        TTGATCTCTT  switch fluorescence ratio    1.01

Entry source: the supplement of paper PMC10126150
